- System: 519858-162-T-J1-PDC complex spheroid viability
- method-description: Anticancer human tumor 519858-162-T-J1-PDC patient-derived colon adenocarcinoma cell line growth inhibition [GQUAD]
- condition-context: second compound 0.1 µM; first compound 1 µM; active compounds read low
Threshold 90%. viability, T/C below it: Fulfilled. viability, T/C at it or above: Not fulfilled.

Below, 2 molecules whose answers are already recorded.
{"columns": ["molecule", "category-label"],
 "data": [
  ["CC1COCCN1c1cc(C2(S(C)(=N)=O)CC2)nc(-c2ccnc3[nH]ccc23)n1 (stereo not given) + Cc1[nH]c2ccc(F)cc2c1-c1nc2c3cccnc3c3ncccc3c2[nH]1", "Fulfilled"],
  ["CC1COCCN1c1cc(-c2ccnn2C)c2ccnc(-c3ccn[nH]3)c2n1 (stereo not given) + CN(C)c1ccc(Nc2c3ccc(NC(=O)CCN4CCCC4)cc3nc3cc(NC(=O)CCN4CCCC4)ccc23)cc1", "Not fulfilled"]
]}

Now look at this one.
Q) Answer whether the molecule CC1COCCN1c1cc(-c2ccnn2C)c2ccnc(-c3ccn[nH]3)c2n1 (stereo not given) + Cc1cnc(CNC(=O)c2c(=O)c3ccc(N4CCCN(C)CC4)nc3n3c2sc2ccccc23)cn1 has viability, T/C strictly less than 90%
A) Fulfilled

* * *

- Tested on: 519858-162-T-J1-PDC complex spheroid viability
- method-description: Anticancer human tumor 519858-162-T-J1-PDC cell line growth inhibition [GQUAD];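 further: spheroids exposed to compounds for 7 days; 100% = DMSO vehicle control viability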
- condition-context: second compound 1 µM; first compound 3.16 µM; active compounds read low
Listing of entries alongside the reported viability, T/C.
Report the value in % with no unit label.

// worked examples, viability, T/C included
{"columns": ["compound", "unit-tag", "meas-value"],
 "data": [
  ["COc1cccc2c1C(=O)c1c(O)c3c(c(O)c1C2=O)CC(O)(C(=O)CO)CC3OC1CC(N)C(O)C(C)O1 (stereo not drawn) + Cc1cnc(CNC(=O)c2c(=O)c3ccc(N4CCCN(C)CC4)nc3n3c2sc2ccccc23)cn1", "%", 47.7],
  ["C=CCn1c(=O)c2cnc(Nc3ccc(N4CCN(C)CC4)cc3)nc2n1-c1cccc(C(C)(C)O)n1 + Cc1cnc(CNC(=O)c2c(=O)c3ccc(N4CCCN(C)CC4)nc3n3c2sc2ccccc23)cn1", "%", 73.6]
]}

Q) viability, T/C for Cc1cccc(N(C)C(=O)C2C(O)CCN2c2nc(C)cc(C(F)(F)F)c2C#N)c1 (stereo not drawn) + Cc1cnc(CNC(=O)c2c(=O)c3ccc(N4CCCN(C)CC4)nc3n3c2sc2ccccc23)cn1 ?
A) 50.5

* * *

- Tested on: 519858-162-T-J1-PDC complex spheroid viability
- method-description: Anticancer human tumor 519858-162-T-J1-PDC cell line growth inhibition [GQUAD];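 further: spheroids exposed to compounds for 7 days; 100% = DMSO vehicle control viability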
- condition-context: second compound 3.16 µM; first compound 0.0999 µM; active compounds read low
- Description: DNA G-quadruplex Stabilizer Agents in Combinations in Complex Spheroids A high-throughput screen of multi-cell type tumor spheroids was designed to identify active combinations of DNA G-quadruplex stabilizer agents and targeted small molecules. […] Compounds. […] If the clinical Cmax for an agent had not been determined, the highest concentration tested was 10 microM. […]
Below, each entry is listed alongside its reported viability, T/C.
Just the number in %, nothing appended.

# count of solved cases: 3
{"columns": ["molecule", "property-label", "meas-value"],
 "data": [
  ["Cc1[nH]c2ccccc2c1CCNCc1ccc(/C=C/C(=O)NO)cc1 + Cc1[nH]c2ccc(F)cc2c1-c1nc2c3cccnc3c3ncccc3c2[nH]1", "viability, T/C", 70.2],
  ["Cn1ncnc1[C@H]1c2n[nH]c(=O)c3cc(F)cc(c23)N[C@@H]1c1ccc(F)cc1 + Cc1cnc(CNC(=O)c2c(=O)c3ccc(N4CCCN(C)CC4)nc3n3c2sc2ccccc23)cn1", "viability, T/C", 43.1],
  ["CC[C@@]1(O)C(=O)OCc2c1cc1n(c2=O)Cc2cc3c(CN(C)C)c(O)ccc3nc2-1 + Cc1[nH]c2ccc(F)cc2c1-c1nc2c3cccnc3c3ncccc3c2[nH]1", "viability, T/C", 78.1]
]}

Q) # query: viability, T/C of entry CC[C@@]1(O)C(=O)OCc2c1cc1n(c2=O)Cc2cc3c(CN(C)C)c(O)ccc3nc2-1 + Cc1cnc(CNC(=O)c2c(=O)c3ccc(N4CCCN(C)CC4)nc3n3c2sc2ccccc23)cn1
A) 38.2

Q) Please report the recorded viability, T/C for CCc1c2c(nc3ccc(O)cc13)-c1cc3c(c(=O)n1C2)COC(=O)[C@]3(O)CC + Cc1[nH]c2ccc(F)cc2c1-c1nc2c3cccnc3c3ncccc3c2[nH]1 .
A) 80

Q) // lookup viability, T/C for CCc1c2c(nc3ccc(O)cc13)-c1cc3c(c(=O)n1C2)COC(=O)[C@]3(O)CC + Cc1cnc(CNC(=O)c2c(=O)c3ccc(N4CCCN(C)CC4)nc3n3c2sc2ccccc23)cn1
A) 52.8

Q) Look up viability, T/C: Cn1ncnc1[C@H]1c2n[nH]c(=O)c3cc(F)cc(c23)N[C@@H]1c1ccc(F)cc1 + CN(C)c1ccc(Nc2c3ccc(NC(=O)CCN4CCCC4)cc3nc3cc(NC(=O)CCN4CCCC4)ccc23)cc1
A) 54.8

Origin of the recorded values: PubChem BioAssay AID2060507
